molecular target: TDP-43 (Homo sapiens, UniProt Q13148 1-414); assay: RNA Bind-n-Seq with designed 260-mer pool; 25 mM Tris-HCl, 150 mM KCl, 3 mM MgCl2, BSA (printed 500 mg/mL), 20 units/mL SUPERase IN; pH not stated; 500 nM RNA pool, 1 h, 4 C; TDP-43 5, 50, 500 nM; high values mean tight binding; conditions: protein: recombinant; tags: SBP (GST cleaved off with PreScission; pGEX-GST-SBP)
Sequence (Q13148 whole entry): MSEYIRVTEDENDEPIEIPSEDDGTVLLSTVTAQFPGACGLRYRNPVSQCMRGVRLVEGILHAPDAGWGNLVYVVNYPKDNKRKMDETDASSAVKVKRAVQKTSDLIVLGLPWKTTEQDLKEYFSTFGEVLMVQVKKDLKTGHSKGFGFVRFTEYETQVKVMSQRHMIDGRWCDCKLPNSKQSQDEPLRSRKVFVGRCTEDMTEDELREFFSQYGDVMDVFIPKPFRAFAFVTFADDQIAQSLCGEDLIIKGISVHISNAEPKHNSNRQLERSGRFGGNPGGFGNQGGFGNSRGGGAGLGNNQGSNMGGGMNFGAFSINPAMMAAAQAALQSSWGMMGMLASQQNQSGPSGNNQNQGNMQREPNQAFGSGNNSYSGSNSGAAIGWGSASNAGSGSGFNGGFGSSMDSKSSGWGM
Whole data set: some 9,900 sequences, median “r (bound/input frequency ratio)” near 0.7, cut for the highest 2% near 6.5. The entries come from a sample that favours the highest values as a whole.
As shown below, each of these binders has a reported binding signal value.

binder	binding signal
ENSMUSG00000022095.194|Fam160b2 (ssRNA) RNA: GGGAGUUCUACAGUCCGACGAUCGCUUCGAUAUCCGCAUGCUAGGCCAGAGCCCCUUUUGCUUCCUUUUCCUGCCCAUGCCACCUCUCGAAGCCGGGCACAGGUUGCCAGGAGGUGACAUGAAAGAGGAGGAAACUCCAUGACCUCUACAUCCCCCGCAGUCCUCCCAGCGGGGGAGGACUUCUCUGCUGCUCCGAAGAACAUCAUGCACUCCUGUGUGUGUGUGUGAGUGUGUGUGUGUGUGUGUGUGUGUGUGUGUGUGUAUGUGUGUGUAUAUGUGUGUGUGUGUGUGUAUGUGUGUGUGCUCUUGCGGUCGCACUAGUGUGGAAUUCUCGGGUGUCAAGG	7.48 R (bound/input frequency ratio)
ENSMUSG00000022095.186|Fam160b2 (ssRNA) RNA: GGGAGUUCUACAGUCCGACGAUCGCUUCGAUAUCCGCAUGCUACACAACAGGCCUGCAGUUGUUGGCUUCCCUCCUGGGCAAGGAGGAGCAGGCCAGAGCCCCUUUUGCUUCCUUUUCCUGCCCAUGCCACCUCUCGAAGCCGGGCACAGGUUGCCAGGAGGUGACAUGAAAGAGGAGGAAACUCCAUGACCUCUACAUCCCCCGCAGUCCUCCCAGCGGGGGAGGACUUCUCUGCUGCUCCGAAGAACAUCAUGCACUCCUGUGUGUGUGUGUGAGUGUGUGUGUGUGUGUGUGUGUGUGUGCUCUUGCGGUCGCACUAGUGUGGAAUUCUCGGGUGUCAAGG	6.14 R (bound/input frequency ratio)
